The reported numbers originate from the supplement of paper PMC11061612.

System: SK-HEP-1 (Hepatocellular Carcinoma);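 also: after 72 h of two-drug dosing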
test details: Bliss excess, mean over the matrix (fraction); higher = more synergy
observed property: Bliss excess
Lab note: jot the number down without any unit.

Item CC(=O)c1c(C)c2cnc(Nc3ccc(N4CCNCC4)cn3)nc2n(C2CCCC2)c1=O [Palbociclib] + Cn1cnc2c(F)c(Nc3ccc(Br)cc3Cl)c(C(=O)NOCCO)cc21 [Selumetinib] (first compound max 10 µM, 7x7, partner max 10 µM) : provide Bliss excess
-0.114

Item NC1(C(=O)N[C@@H](CCO)c2ccc(Cl)cc2)CCN(c2ncnc3[nH]ccc23)CC1 [Capivasertib] + C[C@@H]1COCCN1C2=NC(=NC(=C2)C3(CC3)[S@](=N)(=O)C)C4=C5C=CNC5=NC=C4 [AZD6738] (first compound max 10 µM, 7x7, partner max 10 µM) : provide Bliss excess
-0.0744

Item CN(C)CCCOc1ccc(-c2ccc3ncc4c(c3c2)n(C2CCOCC2)c(=O)n4C)cn1 [AZD0156] + C[C@@H]1COCCN1C2=NC(=NC(=C2)C3(CC3)[S@](=N)(=O)C)C4=C5C=CNC5=NC=C4 [AZD6738] (first compound max 1 µM, 7x7, partner max 10 µM) : provide Bliss excess
-0.0034

Item C=CCn1c(=O)c2cnc(Nc3ccc(N4CCN(C)CC4)cc3)nc2n1-c1cccc(C(C)(C)O)n1 [AZD1775] + C[C@@H]1COCCN1C2=NC(=NC(=C2)C3(CC3)[S@](=N)(=O)C)C4=C5C=CNC5=NC=C4 [AZD6738] (first compound max 1 µM, partner max 10 µM) : provide Bliss excess
-0.0271

Item Cc1c2c(nn1C)CSCc1cc(n(C)n1)CSc1cc(c3ccccc3c1)OCCCc1c(C(=O)O)n(C)c3c-2c(Cl)ccc13 [AZD5991] + C[C@@H](Nc1cc(F)cc(F)c1)c1cc(C(=O)N(C)C)cc2c(=O)cc(N3CCOCC3)oc12 [AZD8186] (first compound max 1 µM, 7x7, partner max 3 µM) : provide Bliss excess
0.0175

Item Cc1cc2ncnn2cc1Nc1ncc2c(n1)n(C1CCOCC1)c(=O)n2C [AZD7648] + C[C@@H]1COCCN1C2=NC(=NC(=C2)C3(CC3)[S@](=N)(=O)C)C4=C5C=CNC5=NC=C4 [AZD6738] (first compound max 10 µM, 7x7, partner max 10 µM) : provide Bliss excess
0.0239
